test system: COLO 205; assay: NCI tumour cell line growth inhibition, 48 h
Calls of active or inactive are those of the source. Rule as the data show it: active = GI50 up to about 1.1 µM and inactive = higher.
Please respond with reported GI50 for every item in the list.

[Q] Using the record for COc1ccc(/C=C2\CCC(C)C3=C(c4ccc(OC)c(OC)c4)C(C#N)=C(N)OC32)cc1OC (stereo not given) , state its measured GI50.
[A] 2.76 µM (inactive)

[Q] Using the record for O=C(N/C(=C\c1ccc([N+](=O)[O-])cc1)c1nc2ccccc2s1)c1ccccc1 , state its measured GI50.
[A] 58.3 µM (inactive)

[Q] Using the record for CC(CCC#N)(CCC#N)C(=O)CC(O)(C(F)(F)F)C(F)(F)F , state its measured GI50.
[A] 2.28 µM (inactive)

[Q] Using the record for CCCCc1ccc(N2C(=O)c3cc([N+](=O)[O-])cnc3S2(=O)=O)cc1 , state its measured GI50.
[A] > 100 µM (inactive)

[Q] Using the record for C=C(C)[C@@H]1CCC2=C[C@@H](OC2=O)[C@@H](C(=C)C)C2=CC(C(=O)O)=C(C1)O2 , state its measured GI50.
[A] > 100 µM (inactive)

[Q] Using the record for O=C(/C=C\c1cccc2ccccc12)c1ccc(Br)cc1 , state its measured GI50.
[A] 31.1 µM (inactive)

[Q] Using the record for CC(C)C1/C(=N/O)CC(c2ccccc2)N(N=O)C1c1ccccc1 (stereo not given) , state its measured GI50.
[A] 16.9 µM (inactive)

[Q] Using the record for O=C1NC(=S)NC1C(Cc1ccccc1)c1ccco1 (stereo not given) , state its measured GI50.
[A] > 100 µM (inactive)

[Q] Using the record for COc1ccc(C2Oc3c(cccc3OC)C=C2[N+](=O)[O-])cc1 (stereo not given) , state its measured GI50.
[A] 2.51 µM (inactive)

[Q] Using the record for COc1cc2cc3c4c(cc(OC)c(OC)c4c2cc1OC)CCN3C(=O)CCCC(=O)O , state its measured GI50.
[A] > 100 µM (inactive)

[Q] Using the record for O=C(NC1(C(=O)O)CC1c1ccccc1)c1ccccc1 (stereo not given) , state its measured GI50.
[A] > 100 µM (inactive)

[Q] Using the record for O=C1CCC(O)=C1O , state its measured GI50.
[A] > 100 µM (inactive)

[Q] Using the record for CC(=O)c1ccc(Oc2ccc(/C(C)=N\N=C(N)N)cc2)cc1 , state its measured GI50.
[A] 1.67 µM (inactive)

[Q] Using the record for COc1ccccc1/C=C1\Sc2scc(-c3cccc([N+](=O)[O-])c3)[n+]2C1=O , state its measured GI50.
[A] 2.11 µM (inactive)

[Q] Using the record for Cc1ccccc1C1SCc2nc3ccccc3n21 (stereo not given) , state its measured GI50.
[A] > 100 µM (inactive)

[Q] Using the record for CCCCCCSCC/C(C)=N\OC , state its measured GI50.
[A] > 100 µM (inactive)

[Q] Using the record for Cc1cccc(Nc2cc(Cl)nc(SCC(=O)O)n2)c1C , state its measured GI50.
[A] > 100 µM (inactive)

[Q] Using the record for CCOP(=O)(OCC)C(C)(C)OC(=O)NC(F)(F)F , state its measured GI50.
[A] > 100 µM (inactive)

[Q] Using the record for COc1c2ccoc2cc2oc(=O)ccc12 , state its measured GI50.
[A] > 100 µM (inactive)

[Q] Using the record for CCOC(=O)N1N(c2ccccc2)C(=O)C1(c1ccccc1)c1ccccc1 , state its measured GI50.
[A] 80.9 µM (inactive)
